Below, each of the binders is paired with its reported OD450 nm value.
- tested on: his-labeled human IL-13 (immunogen A) (human) (UniProt P35225)
- assay details: ELISA, biotin-immunogen A; antibody at 2.67 nM
endpoint label: OD450 nm

c28A2E11 (mouse-human chimeric IL-13 antibody) (antibody, V domains shown) VH: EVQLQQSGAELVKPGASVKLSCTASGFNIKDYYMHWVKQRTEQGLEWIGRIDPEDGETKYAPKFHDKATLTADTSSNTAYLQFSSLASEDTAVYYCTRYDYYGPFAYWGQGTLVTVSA VL: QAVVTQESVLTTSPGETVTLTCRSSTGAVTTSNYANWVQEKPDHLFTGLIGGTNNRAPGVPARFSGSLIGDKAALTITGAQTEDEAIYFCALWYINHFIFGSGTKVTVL	2.6
28A2E11 (lead antibody, mouse hybridoma) (antibody, V domains shown, Mouse monoclonal antibody purified from hybridoma supernatant on Protein G) VH: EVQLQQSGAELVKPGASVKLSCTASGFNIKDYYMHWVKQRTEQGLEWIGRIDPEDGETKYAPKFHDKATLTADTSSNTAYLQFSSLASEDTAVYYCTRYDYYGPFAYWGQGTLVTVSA VL: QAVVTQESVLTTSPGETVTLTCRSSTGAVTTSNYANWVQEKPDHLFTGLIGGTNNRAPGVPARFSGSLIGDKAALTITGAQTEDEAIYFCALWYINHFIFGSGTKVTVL	1.69

Sourced from patent US20190309059A1
